Experiment: solvent given as SMILES
Details: in CC#N
Value kind: absorption maximum (nm)

[
  {
    "Compound": "COc1ccc(-n2nc(C#N)c(NC3CCCCC3)n2)cc1",
    "Test result": 330
  },
  {
    "Compound": "CCCCN1C(=S)c2cccc3c(OC)ccc(c23)C1=S",
    "Test result": 476
  },
  {
    "Compound": "COc1ccc2cc(-c3ccc([N+](=O)[O-])cc3)ccc2c1",
    "Test result": 341
  },
  {
    "Compound": "Cc1ccc(-c2ccc(/C=C/c3ccc(N(C)C)cc3)cn2)nc1",
    "Test result": 383
  },
  {
    "Compound": "Cc1ccc(-c2cc(-c3ccccc3Cl)c3c(N)nc(N4CCCC4)c(C#N)c3n2)cc1",
    "Test result": 414
  },
  {
    "Compound": "COc1ccc([C@@H]2C[C@](O)(c3ccccn3)C[C@](O)(c3ccccn3)[C@H]2C(=O)c2ccc(N(c3ccccc3)c3ccccc3)cc2)cc1",
    "Test result": 366
  },
  {
    "Compound": "CC1=C(c2ccccc2)C2=Cc3c(-c4ccccc4)c(C)c(C)n3[B-](F)(F)[N+]2=C1C",
    "Test result": 538
  },
  {
    "Compound": "F[B-]1(F)N(c2ccccc2)C=Cc2cccc[n+]21",
    "Test result": 412
  },
  {
    "Compound": "CCC1=C(C)C(=O)n2c1cc1c(C)c(CC(=O)OC)c(C)n1c2=O",
    "Test result": 413
  },
  {
    "Compound": "O=c1[nH]c(=O)c2scc([C@H]3C[C@H](O)[C@@H](CO)O3)c2[nH]1",
    "Test result": 296
  },
  {
    "Compound": "Oc1ccc(/N=C/c2ccccc2Oc2ccccc2)cc1",
    "Test result": 350
  },
  {
    "Compound": "N#Cc1ccc(-c2ccc(C3=CCCCC3)s2)s1",
    "Test result": 366
  },
  {
    "Compound": "CCCCN1C(=O)c2cccc3c([O-])c(/C=C/c4sc5ccccc5[n+]4CC)cc(c23)C1=O",
    "Test result": 564.61
  },
  {
    "Compound": "CN1CCN(CCCN2c3ccccc3Sc3ccc(Cl)cc32)CC1",
    "Test result": 314
  },
  {
    "Compound": "CN(C)c1ccc(/C=C/c2ccc(-c3nc(C#N)c(C#N)n3C)cc2)cc1",
    "Test result": 380
  },
  {
    "Compound": "c1ccc(-c2cc(-c3ccc(-c4nc(-c5ccccn5)c(-c5ccccn5)[nH]4)cc3)cc(-c3ccccn3)n2)nc1",
    "Test result": 380
  },
  {
    "Compound": "COC(=O)/C=C/c1sc(-c2ccc(N(C)C)s2)c(-c2ccsc2)c1N",
    "Test result": 472
  },
  {
    "Compound": "CN(C)c1ccc(-n2c(-c3ccncc3)nc3ccccc32)cc1",
    "Test result": 299
  },
  {
    "Compound": "Cc1ccc(-n2cccc2)cc1",
    "Test result": 254
  },
  {
    "Compound": "c1ccc(-c2nc3cc4c(cc3n2-c2ccccc2)nc(-c2ccccc2)n4-c2ccccc2)cc1",
    "Test result": 330
  },
  {
    "Compound": "COC(=O)C(NC(=O)OC(C)(C)C)c1ccc2oc(-c3ccc(O)cc3O)nc2c1 (stereo not drawn)",
    "Test result": 320
  },
  {
    "Compound": "CCC12C(=C3C(=C4c5ccc(-c6ccc(C)s6)cc5S(=O)(=O)C41CC)C(F)(F)C(F)(F)C3(F)F)c1ccc(-c3ccc(C)s3)cc1S2(=O)=O (stereo not drawn)",
    "Test result": 507
  },
  {
    "Compound": "COc1ccc(-c2nc(N)nc(C#N)c2C#N)cc1OC",
    "Test result": 359
  },
  {
    "Compound": "c1ccc2cc(-n3c4ccccc4c4ccccc43)ccc2c1",
    "Test result": 321
  },
  {
    "Compound": "Cn1c2ccccc2[c+](-c2ccccc2)c2cc([N+](=O)[O-])ccc21",
    "Test result": 428.3
  },
  {
    "Compound": "Cc1ccc(C2=C3C=C(I)C=[N+]3[B-](F)(F)n3c2cc(I)c3I)cc1",
    "Test result": 553
  },
  {
    "Compound": "CCOC(=O)CN1C(=O)C2=C(c3ccccc3)N(CC(=O)OCC)C(=O)C2=C1c1ccccc1",
    "Test result": 454
  },
  {
    "Compound": "CCOC(=O)c1c2c3c(ccc(F)c3c3cc4c(cc13)[Si](C)(C)O[Si]4(C)C)N(C)C2=O",
    "Test result": 380
  },
  {
    "Compound": "CCN(CC)c1ccc2cc(/C=C/C(=O)/C=C(O)/C=C/c3cc4ccc(N(CC)CC)cc4oc3=O)c(=O)oc2c1",
    "Test result": 521
  },
  {
    "Compound": "Cc1cc(C)c(B(c2c(C)cc(C)cc2C)c2cc3ccc4ccccc4c3c3c2cc(N(C)C)c2ccccc23)c(C)c1",
    "Test result": 437
  },
  {
    "Compound": "O=c1cc(C(F)(F)F)c2cc3c4c(c2o1)CCCN4CCC3",
    "Test result": 418
  },
  {
    "Compound": "COc1ccc(C#Cc2nc3ccccc3nc2-c2cn(C)c3ccccc23)cc1",
    "Test result": 407
  },
  {
    "Compound": "c1ccc2c(-n3c4ccccc4c4ccccc43)cccc2c1",
    "Test result": 322
  },
  {
    "Compound": "C=CCOC(=O)C(C#N)=C1C=C(/C=C/c2ccc(N(C)C)cc2)OC(/C=C/c2ccc(N(C)C)cc2)=C1",
    "Test result": 476
  },
  {
    "Compound": "C[C@]12SC(=O)C=C1c1nc(-c3ccc(Cl)cc3Cl)[nH]c1C1=CC(=O)S[C@@]12C",
    "Test result": 475
  },
  {
    "Compound": "COc1cc2c(cc1-c1ccccc1)Cc1c3c(c4c(c1-2)-c1cc(OC)c(-c2ccccc2)cc1C4)C(=O)N(CCC(C)C)C3=O",
    "Test result": 406
  },
  {
    "Compound": "Cc1ccc(/C=C/c2ccccc2-[n+]2noc([O-])c2C)cc1",
    "Test result": 310
  },
  {
    "Compound": "CC(C)(C)c1ccc2c(c1)c1cc(C(C)(C)C)ccc1n2-c1ccccc1-c1nc(-c2ccccc2P(=O)(c2ccccc2)c2ccccc2)nc(-c2ccccc2P(=O)(c2ccccc2)c2ccccc2)n1",
    "Test result": 347.54
  }
]
